Value source: the supplement of paper PMC10065799

tested on: c-Src; experiment: phosphorylation enrichment, bacterial display (enrichment ratio); higher = better substrate or ligand; peptides without Tyr show the background;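 also: 11-residue human phosphosite peptides and single-mutation variants displayed on the E. coli surface, counted by deep sequencing, each peptide's frequency after selection divided by its frequency in the unselected input library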;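 also: frequency after pTyr selection over input frequency; kinase dosed for 20-30% of maximal phosphorylation in three min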
If the reported phosphorylation enrichment equals or exceeds 0.5, assign true (1). If not, assign false (0).

>  <sequence_text>
CITIHYNYMCN [TP53_Y234_T230I]

>  <qualitative_label>
false (0)

$$$$
>  <sequence_text>
HAVYVCDICHV [TWNK_Y508_Y508C]

>  <qualitative_label>
true (1)

$$$$
>  <sequence_text>
KEAQVYQAFKL [SUCLG2_Y343]

>  <qualitative_label>
true (1)

$$$$
>  <sequence_text>
FADIAYNFRDG [PAH_Y166_H170D_YF]

>  <qualitative_label>
true (1)

$$$$
>  <sequence_text>
PVQAAYQKVVD [HBB_Y131_A136D]

>  <qualitative_label>
false (0)

$$$$
>  <sequence_text>
IPGGIYNADLN [CST4_Y35_D36N]

>  <qualitative_label>
true (1)

$$$$
>  <sequence_text>
TAGFIYEKWEI [TEC_Y360_S359I]

>  <qualitative_label>
true (1)

$$$$
>  <sequence_text>
DRLAVCIDRVR [LMNA_Y45_Y45C]

>  <qualitative_label>
false (0)

$$$$
>  <sequence_text>
LSSEMYVKSYT [F5_Y2149]

>  <qualitative_label>
true (1)

$$$$
>  <sequence_text>
KNKELYSDLFD [PDE10A_Y300]

>  <qualitative_label>
true (1)

$$$$
>  <sequence_text>
TISPFYCQSLF [CRYAA_Y48_R49C_YF]

>  <qualitative_label>
true (1)

$$$$
>  <sequence_text>
EELLHYAIVTP [POC5_Y37]

>  <qualitative_label>
true (1)

$$$$
>  <sequence_text>
PAIFTYDEFKK [COL8A2_Y648_T645I_YF]

>  <qualitative_label>
true (1)

$$$$
>  <sequence_text>
FMCKVYSDRQP [FGFR1_Y280_P283R]

>  <qualitative_label>
true (1)

$$$$
>  <sequence_text>
QLDQRYLLVPE [DDX49_Y223]

>  <qualitative_label>
true (1)

$$$$
>  <sequence_text>
AIKSFYAALID [RYR1_Y2426_M2423K]

>  <qualitative_label>
false (0)

$$$$

====

# phosphorylation enrichment annotations
biological target: EPHB2 (UniProt P29323); assay: phosphorylation enrichment, bacterial display (enrichment ratio); higher = better substrate or ligand; peptides without Tyr show the background
Sequence (P29323 whole entry, looked up): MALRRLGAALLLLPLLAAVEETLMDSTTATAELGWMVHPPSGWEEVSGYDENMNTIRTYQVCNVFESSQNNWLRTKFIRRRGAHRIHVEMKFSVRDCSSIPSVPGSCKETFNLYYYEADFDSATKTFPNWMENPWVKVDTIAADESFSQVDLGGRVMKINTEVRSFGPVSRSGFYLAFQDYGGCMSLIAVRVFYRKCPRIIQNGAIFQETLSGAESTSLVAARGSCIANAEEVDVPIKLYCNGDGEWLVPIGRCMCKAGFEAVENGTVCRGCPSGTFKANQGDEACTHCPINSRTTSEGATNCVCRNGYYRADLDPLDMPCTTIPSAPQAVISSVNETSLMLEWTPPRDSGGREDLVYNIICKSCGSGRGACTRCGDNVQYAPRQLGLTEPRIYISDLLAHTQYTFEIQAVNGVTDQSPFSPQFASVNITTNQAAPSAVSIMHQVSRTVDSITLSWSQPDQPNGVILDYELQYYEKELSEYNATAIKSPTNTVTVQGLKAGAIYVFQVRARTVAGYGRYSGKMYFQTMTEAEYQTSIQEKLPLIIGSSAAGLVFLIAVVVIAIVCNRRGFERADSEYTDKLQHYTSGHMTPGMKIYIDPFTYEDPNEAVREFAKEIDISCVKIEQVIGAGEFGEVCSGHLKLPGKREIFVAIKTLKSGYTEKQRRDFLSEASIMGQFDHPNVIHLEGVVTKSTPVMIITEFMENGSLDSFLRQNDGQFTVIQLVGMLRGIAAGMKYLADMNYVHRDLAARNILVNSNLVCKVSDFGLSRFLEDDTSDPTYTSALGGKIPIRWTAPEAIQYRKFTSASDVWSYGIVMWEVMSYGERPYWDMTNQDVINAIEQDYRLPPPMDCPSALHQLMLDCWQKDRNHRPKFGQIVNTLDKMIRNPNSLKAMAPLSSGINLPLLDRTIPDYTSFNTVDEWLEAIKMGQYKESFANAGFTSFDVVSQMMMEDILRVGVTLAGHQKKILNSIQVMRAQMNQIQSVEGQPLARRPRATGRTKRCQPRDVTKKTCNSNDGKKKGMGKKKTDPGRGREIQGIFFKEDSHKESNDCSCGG
reported_metric: phosphorylation enrichment

>  <sequence_text>
GSQERDFELVE [TSC2_Y407_Y407D]

>  <reported_metric>
phosphorylation enrichment

>  <reported_measurement>
0.492

$$$$
>  <sequence_text>
VEKEKYVSYIS [JMJD1C_Y596_M591V]

>  <reported_metric>
phosphorylation enrichment

>  <reported_measurement>
0.489

$$$$
>  <sequence_text>
RHPYFFAPELL [ALB_Y174_Y174F]

>  <reported_metric>
phosphorylation enrichment

>  <reported_measurement>
0.613

$$$$
>  <sequence_text>
PSAELYSNALP [PDGFRB_Y716]

>  <reported_metric>
phosphorylation enrichment

>  <reported_measurement>
1.91

$$$$
>  <sequence_text>
INNIDYFKKTT [FGFR2_Y656_YF]

>  <reported_metric>
phosphorylation enrichment

>  <reported_measurement>
0.415

$$$$
>  <sequence_text>
RLLVVYPWTQK [HBG1_Y36_R41K]

>  <reported_metric>
phosphorylation enrichment

>  <reported_measurement>
0.529

$$$$
>  <sequence_text>
SYCYRYCCAAR [SUMF1_Y344_R345C]

>  <reported_metric>
phosphorylation enrichment

>  <reported_measurement>
0.553

$$$$
>  <sequence_text>
GAVDTYCRHNY [HLA-DRB1_Y107_A102G]

>  <reported_metric>
phosphorylation enrichment

>  <reported_measurement>
0.418

$$$$
>  <sequence_text>
VKPRRYRPGTV [H3-5_Y41_H39R]

>  <reported_metric>
phosphorylation enrichment

>  <reported_measurement>
0.51

$$$$
>  <sequence_text>
KSLFHYRQYSA [CPS1_Y1491]

>  <reported_metric>
phosphorylation enrichment

>  <reported_measurement>
0.602

$$$$
>  <sequence_text>
IVLEKYKLLPE [DHFR_Y157_D153V]

>  <reported_metric>
phosphorylation enrichment

>  <reported_measurement>
0.638

$$$$
>  <sequence_text>
RRAKGYPINLY [ITGB2_Y125_D128N]

>  <reported_metric>
phosphorylation enrichment

>  <reported_measurement>
0.853

$$$$
>  <sequence_text>
NEKNIYRVPLM [BMPR2_Y247]

>  <reported_metric>
phosphorylation enrichment

>  <reported_measurement>
0.357

$$$$
>  <sequence_text>
GDAMLYYPSVS [GPR143_Y177_A173D]

>  <reported_metric>
phosphorylation enrichment

>  <reported_measurement>
0.702

$$$$
>  <sequence_text>
IRTDAYVPAMT [RPE65_Y89_R91P]

>  <reported_metric>
phosphorylation enrichment

>  <reported_measurement>
0.336

$$$$
>  <sequence_text>
CITIHYNYMCN [TP53_Y234_T230I]

>  <reported_metric>
phosphorylation enrichment

>  <reported_measurement>
0.515

$$$$
